target: CCR2 (human), P41597; experiment: biotin-labeled peptide at 10 µM on HOS transformants, 125I-streptavidin
Sequence (P41597 whole entry): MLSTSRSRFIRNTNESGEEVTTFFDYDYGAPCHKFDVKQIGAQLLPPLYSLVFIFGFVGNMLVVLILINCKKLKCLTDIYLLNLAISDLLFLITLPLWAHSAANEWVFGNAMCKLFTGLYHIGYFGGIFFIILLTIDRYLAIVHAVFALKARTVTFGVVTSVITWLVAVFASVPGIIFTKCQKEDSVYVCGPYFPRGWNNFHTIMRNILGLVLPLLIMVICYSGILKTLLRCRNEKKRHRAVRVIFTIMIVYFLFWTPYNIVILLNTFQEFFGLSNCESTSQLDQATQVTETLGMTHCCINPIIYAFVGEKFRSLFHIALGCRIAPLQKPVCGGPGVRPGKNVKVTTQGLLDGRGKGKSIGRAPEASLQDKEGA
No end group written: not given here.
recorded.metric: Kd

Ask | // fetch Kd given entry CLDPKQKWIQC (not fully specified (N-terminus); cysteine pairing not given here) [N-terminal biotin conjugate of the sequence n'-…-c']
Reply | > 10 µM
